# System: HOP-62 NSCLC
# assay-protocol: NCI-60 one-dose screen, 48 h (100 = growth as untreated, 0 = no growth, -100 = all killed)
# measurement-setup: 10 µM unless noted
About 83,000 compounds went through this panel and 20% of them were active in at least one assay; those are over-represented in the sample as a whole.
growth vs 40%: at or above is rule met, below is rule not met.

structure-as-smiles: O=C1c2cc(Br)ccc2Oc2cc([N+](=O)[O-])ccc2N1c1ccc(I)cc1F
target-of-assay: HOP-62 NSCLC
assigned-label: rule met
//
structure-as-smiles: Cc1c(-c2csc(-n3nc(C(F)(F)F)cc3C(F)(F)F)n2)no[n+]1[O-]
target-of-assay: HOP-62 NSCLC
assigned-label: rule met
//
structure-as-smiles: CCN(CCO)CCNc1ccc(C)c2sc3cc(Cl)ccc3c(=O)c12
target-of-assay: HOP-62 NSCLC
assigned-label: rule not met
//
structure-as-smiles: C=C1C(=O)O[C@H]2[C@H]1CC/C(COC(=O)/C=C\C(=O)O)=C\CC[C@@]1(C)O[C@@H]21
target-of-assay: HOP-62 NSCLC
assigned-label: rule met
//
structure-as-smiles: CC[C@]1(O)C[C@@H]2CN(CCc3c([nH]c4ccccc34)[C@@](C(=O)OC)(c3cc4c(cc3OC)N(C)[C@H]3[C@@](O)(C(=O)OC)[C@H](OC(C)=O)[C@]5(CC)C=CCN6CC[C@]43[C@@H]65)C2)C1
target-of-assay: HOP-62 NSCLC
assigned-label: rule not met

###

# Tested on: RPMI-8226 leukemia
# assay-protocol: NCI-60 one-dose screen, 48 h (100 = growth as untreated, 0 = no growth, -100 = all killed)
# measurement-setup: 10 µM unless noted
The panel holds about 83,000 compounds, 20% with a hit somewhere; the sample as a whole holds those more often.
Measured growth, listed per entry for reference.

molecule: O=C(Nc1ccc(C23CC4CC(CC(c5ccccc5)(C4)C2)C3)cc1)c1cccs1
unit-abbreviation: %
growth: 41.1
--
molecule: COc1ccc(OC)c(NC(=O)/C(C#N)=C/c2ccco2)c1
unit-abbreviation: %
growth: 93.7
--
molecule: COCCN(C(=O)Cc1cccs1)C(C(=O)NCc1ccc(OC)cc1)c1ccc(C(C)C)cc1 (centres undefined)
unit-abbreviation: %
growth: 93.2
--
molecule: COc1cccc2cc(N(C)c3nc(C)nc4ccsc34)ccc12
unit-abbreviation: %
growth: 12.5

###

# Test system: LOX IMVI melanoma
# assay-protocol: NCI-60 one-dose screen, 48 h (100 = growth as untreated, 0 = no growth, -100 = all killed)
# measurement-setup: 10 µM unless noted
# Experimental: Growth inhibition of the LOX IMVI human tumor cell line is measured as a screen for anti-cancer activity. Cells are grown in 96 well plates and exposed to the test compound for 48 hours. Compounds are tested at a single concentration, which is 10^-5 M for most compounds. The reported endpoint is percent growth (GI% or GIPRCNT), where numbers from 0 - 100% represent growth inhibition, and numbers from -100% - 0 represent cell death. For example, a value of 40 represents 60% growth inhibition. […]
The panel holds about 83,000 compounds, 20% with a hit somewhere; the sample as a whole holds those more often. Active and inactive are the calls of the source. The calls were made as follows: active = growth percent below 10; inactive = the rest.
Reported growth values for a set of molecules

molecule: O=C(CN1C(=O)/C(=C\c2ccc(Cl)cc2)SC1=S)Nc1ncc(Cc2ccc(Cl)cc2)s1
growth: 92.9% (inactive)
//
molecule: Cn1c(/C=C(\C#N)c2cccc(C(F)(F)F)c2)nc2c(N3CCOCC3)nc(Cl)nc21
growth: -87.9% (active)
//
molecule: Cc1ccc(NCCNCC(O)CO)c2c(=O)c3ccccc3sc12 (stereo not drawn)
growth: -95.2% (active)
//
molecule: CCOC(=O)c1cc2c(n1Cc1cc(OC)cc(OC)c1)-c1oncc1CCC2
growth: 25.3% (inactive)
//
molecule: Cc1cc2c(c(C)c1Cl)C(=O)/C(=C/c1ccco1)O2
growth: 93% (inactive)
//
molecule: Nc1nc(-c2ccccc2Br)nn1-c1nc2ccccc2s1
growth: 106% (inactive)
//
molecule: COc1ccc(S(=O)(=O)N(Cc2ccc3c(n2)C=CC(C)(C)O3)C2CCC2)cc1OC
growth: -40.6% (active)
//
molecule: Cc1ccc(C2CC(c3ccc(Nc4nc(NCCO)nc(Nc5ccc(Cl)cc5)n4)cc3)=NN2c2cc(Cl)cc(Cl)c2)cc1 (stereo not drawn)
growth: 98.7% (inactive)
//
molecule: COc1cc(/C=C2\CN(C)C/C(=C\c3cc(CN4CCCC4)c(O)c(OC)c3)C2=O)cc(CN2CCCC2)c1O
growth: 26.3% (inactive)
//
molecule: O=C(CSc1ncccc1C(=O)O)Nc1ccc(Oc2ccccc2)cc1
growth: 92.1% (inactive)
//
molecule: O=C1CCC(N2C(=O)c3cccc(NCCCCCCOc4ccc(Nc5nccc(Nc6ccccc6)n5)cc4)c3C2=O)C(=O)N1 (stereo not drawn)
growth: 88.1% (inactive)
//
molecule: COC(=O)C1=Nc2ccc(F)cc2/C1=C/c1sc(=S)[nH]c1O
growth: 13% (inactive)
//
molecule: CN1C(=O)N(C)C2C1NN=c1s/c(=C\c3ccc(Cl)cc3Cl)c(=O)n12 (stereo not drawn)
growth: 19.7% (inactive)
//
molecule: Oc1ccc(-c2nc(-c3ccc4oc5ccc(-c6[nH]c(-c7ccc(O)cc7)nc6-c6ccccc6)cc5c4c3)c(-c3ccccc3)[nH]2)cc1
growth: 67.5% (inactive)
//
molecule: COc1ccc(Cn2cc(Cn3c(=O)c(-c4nc5ccccc5[nH]4)cc4ccccc43)nn2)c(OC)c1OC
growth: 18.9% (inactive)
//
molecule: O=c1oc2ccc(F)cc2c(=O)n1-c1ccc(F)cc1F
growth: 14.2% (inactive)
//
molecule: COc1ccc(CSc2nnc(SCC(=O)Nc3ccc(Cl)cc3)s2)cc1
growth: 46.8% (inactive)
//
molecule: CCCCN1CCN(c2ccc3nc(-c4ccc5nc(-c6ccc(C(F)(F)F)cc6)[nH]c5c4)[nH]c3c2)CC1
growth: -89.5% (active)
//
molecule: COc1ccc(Nc2cc(C)nc(NCc3ccccc3)n2)cc1
growth: -57.5% (active)
//
molecule: COc1ccccc1C(=O)/C=C/c1ccccc1
growth: 76.2% (inactive)
//
molecule: O=C(NCc1ccccc1)C1CN(c2ccc(Cl)cc2)N(c2ccc(Cl)cc2)C1=O (stereo not drawn)
growth: 88.4% (inactive)
//
molecule: COc1nc2c(c(=O)n1C)N=C1c3ccccc3C(=O)C1C(c1ccccc1)N2 (stereo not drawn)
growth: 83.4% (inactive)
//
molecule: COC(=O)[C@@H]1CCCN1C(=O)[C@H]1CCCN1C(=O)[C@@H](Cc1c[nH]c2ccccc12)NC(=S)Nc1cc(C(F)(F)F)cc(C(F)(F)F)c1
growth: 38.8% (inactive)
//
molecule: Cc1cccc2c(=O)c3c(sc12)c(NCCN)nc1ccccc13
growth: -92.9% (active)
//
molecule: O=C1NC(=O)C(=Cc2cn(Cc3cn(Cc4ccc(Cl)cc4Cl)nn3)c3ccccc23)C(=O)N1
growth: 80.1% (inactive)
//
molecule: CCn1c(Cc2ccccc2Nc2c(Cl)cccc2Cl)nnc1SCC(=O)NN1C(=O)/C(=C/c2cccc(OC)c2OC)SC1=S
growth: 92% (inactive)
//
molecule: O=C1c2cc(Br)ccc2Oc2cc([N+](=O)[O-])ccc2N1c1ccc(I)cc1F
growth: 93.5% (inactive)
//
molecule: CCN(CC)CCNC(=O)C(Cl)=C1C(Cl)=C(Cl)C(Cl)=C1Cl
growth: 22.6% (inactive)
//
molecule: CCN(CC)CCCNc1ccnc2cc3ccccc3cc12
growth: 53.9% (inactive)
//
molecule: Cc1ccc2c(n1)C(=O)C(Oc1ccc(Br)cc1)=CC2=O
growth: 84.2% (inactive)
//
molecule: COc1ccccc1C(=O)O/N=C(\N)Cc1cccc2ccccc12
growth: 70.6% (inactive)
//
molecule: O=C1C(Cl)=C(NCc2ccco2)C(=O)c2ccccc21
growth: 16.2% (inactive)
//
molecule: COc1cc2cc3c(=O)n4c(cc5cc(OC)ncc54)c(=O)n3c2cn1
growth: 100% (inactive)
